All figures here come from ChEMBL document CHEMBL4433217.

ASSAY TARGET: Peroxisome proliferator-activated receptor gamma (Homo sapiens) (UniProt P37231)
Sequence (P37231 whole entry, the tested form may be a part): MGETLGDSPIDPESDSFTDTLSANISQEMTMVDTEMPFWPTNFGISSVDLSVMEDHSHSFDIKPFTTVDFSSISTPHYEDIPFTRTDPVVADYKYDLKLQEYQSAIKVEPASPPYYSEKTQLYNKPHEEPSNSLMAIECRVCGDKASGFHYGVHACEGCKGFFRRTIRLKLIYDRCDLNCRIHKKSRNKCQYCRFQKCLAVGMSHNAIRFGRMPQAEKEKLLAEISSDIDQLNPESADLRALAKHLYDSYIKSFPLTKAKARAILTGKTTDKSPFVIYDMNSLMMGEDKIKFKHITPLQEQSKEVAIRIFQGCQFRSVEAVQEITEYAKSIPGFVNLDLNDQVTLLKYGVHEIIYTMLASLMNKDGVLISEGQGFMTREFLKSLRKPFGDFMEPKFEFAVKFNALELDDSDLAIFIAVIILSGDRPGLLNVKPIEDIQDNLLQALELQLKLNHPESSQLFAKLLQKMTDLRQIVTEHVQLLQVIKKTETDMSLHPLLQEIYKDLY
TEST PROTOCOL: Transactivation of GAL4-tagged human PPARgamma LBD expressed in human HepG2 cells at 100 nM to 100 uM incubated for 20 to 22 hrs by luciferase reporter gene assay relative to rosiglitazone
Format: cell-based
METRIC: Emax (%)

Use the examples below as a reference point.
SAMPLE SMILES | REPORTED
CC(C)(Oc1ccc(OCCc2ccc(/N=N/c3ccc(C#N)cc3)cc2)cc1)C(=O)O | 12
CC(C)(Oc1ccc(CCOc2ccc(/N=N/c3ccc(Br)cc3)cc2)cc1)C(=O)O | 12
CC(C)(Oc1ccc(OCCc2ccc(/N=N/c3ccc(C(F)(F)F)cc3)cc2)cc1)C(=O)O | 9
CC(C)(Oc1ccc(OCCc2ccc(/N=N/c3ccc(Br)cc3)cc2)cc1)C(=O)O | 8
CC(C)(Oc1ccc(CCOc2ccc(/N=N/c3ccc([N+](=O)[O-])cc3)cc2)cc1)C(=O)O | 14
CC(C)(Oc1ccc(CCOc2ccc(/N=N/c3ccc(C#N)cc3)cc2)cc1)C(=O)O | 12

(A) CC(C)(Oc1ccc(CCOc2ccc(/N=N/c3ccc(Cl)cc3)cc2)cc1)C(=O)O
(B) CC(C)(Oc1ccc(CCOc2ccc(/N=N/c3ccc(C(F)(F)F)cc3)cc2)cc1)C(=O)O
(C) CC(C)(Oc1ccc(OCCc2ccc(/N=N/c3ccccc3)cc2)cc1)C(=O)O
Query :: Order these by Emax, descending, and give the full ranking. Rank the items, then write their labels in that order.
Result :: C, A, B
(C: 24%, A: 12%, B: 8%)

* * *

ASSAY TARGET: Peroxisome proliferator-activated receptor delta (Homo sapiens)
Sequence (Q03181 whole entry): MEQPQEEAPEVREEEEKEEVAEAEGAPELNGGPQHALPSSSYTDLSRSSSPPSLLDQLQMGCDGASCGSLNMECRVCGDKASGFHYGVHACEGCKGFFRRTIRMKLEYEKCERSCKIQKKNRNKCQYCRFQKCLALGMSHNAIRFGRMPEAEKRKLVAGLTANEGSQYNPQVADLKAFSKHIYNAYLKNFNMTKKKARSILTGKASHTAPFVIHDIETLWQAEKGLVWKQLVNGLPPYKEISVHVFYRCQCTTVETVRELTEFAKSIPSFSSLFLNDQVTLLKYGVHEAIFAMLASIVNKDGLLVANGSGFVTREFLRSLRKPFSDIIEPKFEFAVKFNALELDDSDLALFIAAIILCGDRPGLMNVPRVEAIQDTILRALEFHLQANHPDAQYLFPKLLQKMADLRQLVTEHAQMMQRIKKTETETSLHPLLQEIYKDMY
TEST PROTOCOL: Transactivation of GAL4-tagged human PPARdelta LBD expressed in human HepG2 cells at 100 nM to 100 uM incubated for 20 to 22 hrs by luciferase reporter gene assay
pEC50: −log10 of the molar value.
METRIC: pEC50

Use the examples below as a reference point.
SAMPLE SMILES | ASSAY TARGET | METRIC | REPORTED
CC(C)(Oc1ccc(OCCc2ccc(/N=N/c3ccc(C#N)cc3)cc2)cc1)C(=O)O | Peroxisome proliferator-activated receptor delta (Homo sapiens) | pEC50 | 5.55
COc1ccc(/N=N/c2ccc(OCCc3ccc(OC(C)(C)C(=O)O)cc3)cc2)cc1 | Peroxisome proliferator-activated receptor delta (Homo sapiens) | pEC50 | 5.85
CCCc1c(OCCCOc2ccc(OCC(=O)O)cc2)ccc(C(C)=O)c1O | Peroxisome proliferator-activated receptor delta (Homo sapiens) | pEC50 | 6.68
CC(C)(Oc1ccc(CCOc2ccc(/N=N/c3ccc(Br)cc3)cc2)cc1)C(=O)O | Peroxisome proliferator-activated receptor delta (Homo sapiens) | pEC50 | 5.41
CC(C)(Oc1ccc(CCOc2ccc(/N=N/c3ccccc3)cc2)cc1)C(=O)O | Peroxisome proliferator-activated receptor delta (Homo sapiens) | pEC50 | 5.19

(a) CC(C)(Oc1ccc(CCOc2ccc(/N=N/c3ccc(Cl)cc3)cc2)cc1)C(=O)O
(b) CC(C)(Oc1ccc(CCOc2ccc(/N=N/c3ccc(C#N)cc3)cc2)cc1)C(=O)O
(c) CC(C)(Oc1ccc(CCOc2ccc(/N=N/c3ccc(C(F)(F)F)cc3)cc2)cc1)C(=O)O
Query :: I would appreciate it if you could sort these 3 compounds by pEC50, starting from the smallest number. Rank the items, then write their labels in that order.
Result :: b, a, c

(A) CC(C)(Oc1ccc(OCCc2ccc(/N=N/c3ccccc3)cc2)cc1)C(=O)O
(B) CC(C)(Oc1ccc(OCCc2ccc(/N=N/c3ccc(Br)cc3)cc2)cc1)C(=O)O
Query :: Of A and B , whose reported pEC50 is the larger number? Please identify the chosen entry by its label.
Result :: B

(P) CC(C)(Oc1ccc(OCCc2ccc(/N=N/c3ccc([N+](=O)[O-])cc3)cc2)cc1)C(=O)O
(Q) CC(C)(Oc1ccc(CCOc2ccc(/N=N/c3ccc([N+](=O)[O-])cc3)cc2)cc1)C(=O)O
(R) CC(C)(Oc1ccc(OCCc2ccc(/N=N/c3ccc(Cl)cc3)cc2)cc1)C(=O)O
Query :: Order these by pEC50, descending, and give the full ranking. Rank the items, then write their labels in that order.
Result :: R, P, Q
